- Test system: L. donovani
- experimentalDetails: In vitro growth inhibition of L. donovani axenic amastigotes
- Type: cell-based, Leishmania donovani
- statedConditions: Leishmania donovani; Table 4, pure compounds; axenic amastigote
readoutType: IC50 (µg/mL)

>>> observedresult("COC(=O)c1cc(O)c(O)c(O)c1 [Methyl gallate (2), methyl gallate]")
8.5
>>> observedresult("O=c1c(O)c(-c2ccc(O)c(O)c2)oc2c(O)c(O[C@@H]3O[C@H](CO)[C@@H](O)[C@H](O)[C@H]3O)cc(O)c12 [Gossypetin-7-O-β-glucopyranoside (6), gossypetin-7-O-β-glucopyranoside]")
53
>>> observedresult("O=c1cc(-c2ccc(O)c(O)c2)oc2c(O)c(O[C@@H]3O[C@H](CO)[C@@H](O)[C@H](O)[C@H]3O)cc(O)c12 [Hypolaetin-7-O-glucoside (7), hypolaetin-7-O-glucoside]")
52
>>> observedresult("O=C(OC[C@@H]1O[C@H](OC(=O)c2cc(O)c(O)c(O)c2)[C@@H](OC(=O)c2cc(O)c(O)c(O)c2)[C@H](OC(=O)c2cc(O)c(O)c(O)c2)[C@H]1OC(=O)c1cc(O)c(O)c(O)c1)c1cc(O)c(O)c(O)c1 [Pentagalloyl-β-glucopyranoside (5), 1,2,3,4,6 pentagalloyl-β-glucopyranoside]")
15

I: O=C(O)c1cc(O)c(O)c(O)c1 [Gallic acid (1), gallic acid]
II: CC/C=C\C/C=C\C/C=C\CCCCCCCc1cc(O)cc(O)c1 [Resorcinol-alkyl (8)]
III: CCOC(=O)c1cc(O)c(O)c(O)c1 [Ethyl gallate (4), ethyl gallate]
Q: Order the 3 molecules from highest to lowest IC50. Form field (ranking): labels in requested order.
A: I, III, II

These data points were gathered from paper PMC11013945.
